System: glycogen synthase kinase-3 (GSK3A per assay name; protocol says GSK3B)
Test: compounds binding glycogen synthase kinase-3 – biochemical, small-molecule microarray, 635 nm fluorescence, GSK3A, primary screen (AID 1103); also: the record names both GSK3A and GSK3B
Settings: fluorescence 635 nm, higher = more signal

- COMPOUND: "Cc1ccc(-c2cccc(=O)o2)cc1"
  composite z-score: -0.39
- COMPOUND: "COC(=O)[C@@]1(Cc2ccccc2)[C@H]2c3cc(C(=O)N4CCCC4)n(Cc4ccccc4)c3C[C@H]2CN1C(=O)c1ccccc1"
  composite z-score: 0.882
- COMPOUND: "COc1ccc([Si](C)(C)[C@@H]2[C@@H](CC(=O)N3Cc4ccccc4C[C@H]3CO)O[C@]3(C(=O)N(Cc4cccc(N5CCCCC5=O)c4)c4ccccc43)[C@H]2C)cc1"
  composite z-score: 1.2
- COMPOUND: "CCOC(=O)C1=CCC(c2cccc(Cl)c2)O1 (configuration not stated)"
  composite z-score: 0.0617
- COMPOUND: "O=C1O[C@@H](c2ccccc2)[C@@H](c2ccccc2)N2[C@@H](c3ccc(O)cc3)[C@]3(C(=O)Nc4ccc(C#CC5=CCCCC5)cc43)[C@@H](C(=O)Nc3nc4ccccc4s3)[C@H]12"
  composite z-score: 1.29
- COMPOUND: "O=C1N(CCS(=O)(=O)c2ccccc2)Cc2ccccc2C[C@@]12COC(c1ccc(OCCCO)cc1)=N2"
  composite z-score: 1.29
- COMPOUND: "COC(=O)[C@]1(Cc2ccccc2CN=[N+]=[N-])N=C(c2ccc(OCCCO)cc2)O[C@@H]1c1ccccc1CN=[N+]=[N-]"
  composite z-score: 0.419
- COMPOUND: "CC(C)CN1C(=O)[C@@]2(Cc3ccccc31)c1ccccc1C(=O)N(Cc1ccccc1)[C@H]2c1ccc(CO)cc1"
  composite z-score: -0.776
- COMPOUND: "COCCOC(=O)N1C(=O)[C@@]2(c3ccccc31)[C@H](c1ccccc1OCCO)N1[C@H](c3ccccc3)[C@H](c3ccccc3)OC(=O)[C@H]1[C@@H]2C(=O)N1CCc2cc(OC)c(OC)cc2C1"
  composite z-score: 1.28
- COMPOUND: "CC(C)=CCCC(C)=CC(O)C1C=CC2C(=O)N(c3ccccc3)C(=O)C2N1Nc1ccc([N+](=O)[O-])cc1 (configuration not stated)"
  composite z-score: 1.34
- COMPOUND: "COCCOC(=O)N1C(=O)[C@@]2(c3cc(C#CCC(C(=O)OC)C(=O)OC)ccc31)[C@H](c1ccc(OCCO)cc1)N1[C@H](c3ccccc3)[C@H](c3ccccc3)OC(=O)[C@H]1[C@@H]2C(N)=O"
  composite z-score: 1.24
- COMPOUND: "C=CCOC(=O)[C@@H]1[C@H]2C(=O)O[C@H](c3ccccc3)[C@H](c3ccccc3)N2[C@H](c2ccc(OCCOC(=O)[C@@H]3C[C@@H]4C(=O)N5CCC[C@H]5C(=O)N4[C@@H]3c3cccc(OCCO)c3)cc2)[C@@]12C(=O)Nc1ccc(I)cc12"
  composite z-score: 1.12
- COMPOUND: "Cc1cc(C)c(C(O)C2C=CC3C(=O)N(c4ccccc4)C(=O)C3N2Nc2ccccc2)c(C)c1 (configuration not stated)"
  composite z-score: 1.2
- COMPOUND: "COCCOC(=O)N1C(=O)[C@@]2(c3ccccc31)[C@H](c1ccc(OCCO)cc1)N1[C@H](c3ccccc3)[C@H](c3ccccc3)OC(=O)[C@H]1[C@@H]2C(=O)NC[C@H](O)c1ccccc1"
  composite z-score: 0.777
- COMPOUND: "COc1ccc([Si](C)(C)[C@@H]2[C@@H](CC(=O)N(CCO)Cc3ccccc3)O[C@]3(C(=O)N(Cc4ccc(N5CCOC5=O)cc4)c4ccccc43)[C@H]2C)cc1"
  composite z-score: 0.218
- COMPOUND: "CCCC=C(CCC)[C@@H](NS(=O)(=O)c1cccc2cccnc12)c1ccc(C(=O)OC)cc1"
  composite z-score: 0.0656
- COMPOUND: "CCCN1C(=O)[C@@H]2Cc3c([nH]c4ccccc34)[C@@H](c3cccc(O)c3)N2C1=O"
  composite z-score: 0.718
- COMPOUND: "O=C1O[C@H](c2ccccc2)[C@H](c2ccccc2)N2[C@H]1[C@@H](C(=O)NC[C@H](O)c1ccccc1)[C@]1(C(=O)Nc3ccccc31)[C@H]2c1ccccc1OCCO"
  composite z-score: 0.447
- COMPOUND: "CC(C)(C)OC(=O)CC[C@@]1(C(=O)N2CCCCC2)N=C(c2ccc(OCCCO)cc2)O[C@@H]1c1ccccc1CN=[N+]=[N-]"
  composite z-score: 0.53
- COMPOUND: "O=C1O[C@H](c2ccccc2)[C@H](c2ccccc2)N2[C@H]1[C@@H](C(=O)N1CCN(c3ncccn3)CC1)[C@]1(C(=O)Nc3ccc(C#CCCO)cc31)[C@H]2c1ccccc1OCCO"
  composite z-score: 1.11
- COMPOUND: "COCCOC(=O)N1C(=O)[C@@]2(c3cc(C#CC4(O)CCCCCC4)ccc31)[C@H](C(=O)N1CCc3cc(OC)c(OC)cc3C1)[C@H]1C(=O)O[C@H](c3ccccc3)[C@H](c3ccccc3)N1[C@@H]2c1ccccc1OCCO"
  composite z-score: 1.3
- COMPOUND: "[N-]=[N+]=NCc1ccccc1[C@H]1OC(c2ccc(OCCCO)cc2)=N[C@@]1(Cc1ccccc1)C(N)=O"
  composite z-score: 0.644
- COMPOUND: "COc1ccc(C(=O)Nc2ccc(CN3C(=O)[C@]4(O[C@H](CCn5cc([C@H](O)c6ccccc6)nn5)[C@@H]([Si](C)(C)c5ccc(OC)cc5)[C@@H]4C)c4ccccc43)cc2)cc1"
  composite z-score: -0.109
- COMPOUND: "Cc1ccc(S[C@]2(C(=O)NCCN3CCOCC3)CC(=O)N(C3Cc4ccccc4C3)[C@@H]2c2ccc(CO)cc2)cc1"
  composite z-score: -1.2
- COMPOUND: "COCCCNC(=O)[C@@]1(Cc2ccccc2)COC(c2ccc(OCCCO)cc2)=N1"
  composite z-score: 0.384
- COMPOUND: "C[N+](C)(C)CCCCNC(=O)[C@H]1C[C@H]2C(=O)NCC(=O)N2[C@H]1c1ccc(O)cc1"
  composite z-score: 1.35
- COMPOUND: "CN1C(=O)C2C=CC(C(O)C3CCCCC3)N(N(c3ccccc3)c3ccccc3)C2C1=O (configuration not stated)"
  composite z-score: -1.14

meta.source: PubChem BioAssay
